Numbers sourced from PubChem BioAssay.

Method: S. cerevisiae growth modulation with rapamycin, primary screen, strain BY4716, OD600, 96 h (AID 1091); also: test concentration not given here
Condition label: higher = more signal, called active from +8 up or from −8 down
Outcome measure: z-score
I only need the number, thanks.

Task item: Endpoint output: z-score of `CN(C)C(=O)[C@]1(Cc2ccccc2CN=[N+]=[N-])N=C(c2ccc(OCCCO)cc2)O[C@@H]1c1ccccc1CN=[N+]=[N-]` . Value?
Reply: 4.49

Task item: Endpoint output: z-score of `CC(=O)N1Cc2ccccc2C[C@@]2(COC(c3ccc(OCCCO)cc3)=N2)C1=O` . Value?
Reply: -0.965

Task item: Endpoint output: z-score of Cc1ccc(C(C)CC(O)C2C=CC3C(=O)N(c4ccccc4)C(=O)C3N2Nc2ccc([N+](=O)[O-])cc2)o1 (configuration not stated) . Value?
Reply: 1.31

Task item: Endpoint output: z-score of COc1ccc(C(=O)O[C@H]2CC[C@]3(C)C4=C(CCC3C2(C)C)[C@]2(C)CC[C@H]([C@H](C)CCCC(C)C)[C@@]2(C)CC4)cc1 (some centres not stated) . Value?
Reply: -0.262

Task item: Endpoint output: z-score of CCC(CC)C(O)C1C=CC2C(=O)N(C)C(=O)C2N1Nc1ccccc1 (configuration not stated) . Value?
Reply: 0.0024

Task item: Endpoint output: z-score of `C=CCNC(=O)[C@H]1[C@@H]2C(=O)O[C@@H](c3ccccc3)[C@@H](c3ccccc3)N2[C@@H](c2ccccc2OCCO)[C@]12C(=O)Nc1ccc(C#CC3=CCCCC3)cc12` . Value?
Reply: 4.78

Task item: Endpoint output: z-score of `C=C(COC)/C(=C/C[C@@H](OC(C)=O)c1ccc(OCCO)cc1)c1cc(C(=O)OC)ccc1OC` . Value?
Reply: -0.645

---

Method: Plasmodium falciparum growth inhibition, primary screen, strain 3D7, DAPI fluorescence, 100 nL (AID 1184);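 also: parasites grown inside human red blood cells in medium with human serum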
Condition label: P. falciparum 3D7 growth, 3 d, higher = more signal
Outcome measure: z-score
I only need the number, thanks.

Task item: Endpoint output: z-score of O=C1OCCC=C[C@H]2OC34C=CCN(CCN5CCOCC5)C(=O)[C@H]3N(CCCCCCO)C(=O)[C@@H]4C12 (some centres undefined) . Value?
Reply: -0.0217

Task item: Endpoint output: z-score of [N-]=[N+]=Nc1ccccc1C[C@]1(C(=O)NCC(O)CO)N=C(c2ccc(OCCCO)cc2)O[C@H]1c1ccccc1N=[N+]=[N-] (some centres undefined) . Value?
Reply: -2.44

Task item: Endpoint output: z-score of `CC(C)(C)OC(=O)CC[C@@]1(C(N)=O)N=C(c2ccc(OCCCO)cc2)O[C@@H]1c1ccccc1` . Value?
Reply: -0.589

Task item: Endpoint output: z-score of CC1CC/C=C\[C@H]2OC34C=CCN(Cn5nnc6ccccc65)C(=O)[C@H]3N(C(CO)C(C)C)C(=O)[C@@H]4C2C(=O)O1 (some centres undefined) . Value?
Reply: -0.918

---

Method: basal RPMI8226 mitochondrial membrane potential changes, profiling panel, cell-based, JC-1 fluorescence, 24 h, 100 nL compound (AID 1169); also: test concentration not given here
Condition label: RPMI8226 myeloma, JC-1 mitochondrial potential fluorescence, higher = more signal
Provide the recorded z-score for the entries that follow.

Task item: Endpoint output: z-score of `COc1ccc(CCNC(=O)[C@@H]2c3ccccc3C(=O)N(C3Cc4ccccc4C3)[C@H]2c2ccc(CO)cc2)cc1` . Value?
Reply: -0.78

Task item: Endpoint output: z-score of `CCOC(=O)C[C@H]1[C@H](OC(=O)c2cc3ccccc3oc2=O)[C@@H](NC(=O)C2CCCCC2)c2cc(OCCCO)ccc2N1C(=O)c1ccccc1` . Value?
Reply: -0.848

Task item: Endpoint output: z-score of `CCCC=C(CCC)[C@@H](NC(=O)Oc1ccc(F)cc1)c1ccc(C(=O)OC)cc1` . Value?
Reply: -0.754

Task item: Endpoint output: z-score of `O=C1O[C@H](c2ccccc2)[C@H](c2ccccc2)N2[C@H]1[C@@H](C(=O)Nc1nc3ccccc3s1)[C@]1(C(=O)Nc3ccc(C#CCCO)cc31)[C@H]2c1ccc(OCCO)cc1` . Value?
Reply: -0.995

Task item: Endpoint output: z-score of `COc1ccc(CCN2C(=O)[C@@]3(c4ccc([N+](=O)[O-])cc4)CC(=O)N(C4CCCCC4)[C@@H]3c3ccc(CO)cc32)cc1` . Value?
Reply: -0.694

Task item: Endpoint output: z-score of CN1C(=O)C2C=CC(C(O)Cc3ccccc3)N(Nc3ccccc3)C2C1=O (configuration not stated) . Value?
Reply: 0.0363

Task item: Endpoint output: z-score of COC(=O)C=C(CC(O)c1cccc(Cl)c1)OC (configuration not stated) . Value?
Reply: -0.738

---

Provide the recorded composite Z-score for the entries that follow.
Method: small-molecule microarray binders of probe aXIP, primary screen, biochemical, NeuroSMM set, 635/667 nm fluorescence (AID 1119);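 also: probe is the protein aXip251-270 applied at 1 µg/mL to compound-printed slides; binding of probe to printed compounds measured as 667 nm fluorescence plus signal to noise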
Condition label: higher = more signal, called active from +8 up or from −8 down
Activity calls are given as the source filed them.

Task item: Endpoint output: composite Z-score of `CC(C)[C@@H](CO)NC(=O)[C@H]1[C@@H](c2ccccc2)N(c2ccccc2)O[C@@H]1C` . Value?
Reply: 0.365 (inactive)

Task item: Endpoint output: composite Z-score of `CC(C)C[C@@H]1NC(=O)[C@@H]2C[C@H](C(=O)NCCCCCN)[C@H](c3cccc(OCCO)c3)N2C1=O` . Value?
Reply: 0.425 (inactive)

Task item: Endpoint output: composite Z-score of `[N-]=[N+]=NCc1ccccc1[C@@H]1OC(c2ccc(OCCCO)cc2)=N[C@]1(Cc1ccccc1N=[N+]=[N-])C(=O)N1CCOCC1` . Value?
Reply: 0.105 (inactive)

Task item: Endpoint output: composite Z-score of `C[N+](C)(C)CCCC[C@@H]1NC(=O)[C@@H]2C[C@H](C(=O)NCCCCCN)[C@H](c3cccc(OCCO)c3)N2C1=O` . Value?
Reply: 0.0926 (inactive)

Task item: Endpoint output: composite Z-score of `COCCOC(=O)N1C(=O)[C@@]2(c3cc(C#CCCO)ccc31)[C@H](C(=O)N1CCN(c3ncccn3)CC1)[C@H]1C(=O)O[C@H](c3ccccc3)[C@H](c3ccccc3)N1[C@@H]2c1ccccc1OCCO` . Value?
Reply: -0.07 (inactive)

Task item: Endpoint output: composite Z-score of `C=C(/C(=C/C[C@@H](OC(C)=O)c1ccc(OCCO)cc1)c1cnc2ccccc2c1)C(C)C` . Value?
Reply: -0.199 (inactive)

Task item: Endpoint output: composite Z-score of C=C(C)C1C(=C)CN([C@H](CO)c2ccccc2)C1=O (some centres undefined) . Value?
Reply: 1.66 (inactive)

Task item: Endpoint output: composite Z-score of `COc1ccc([Si](C)(C)[C@@H]2[C@@H](CCO)O[C@]3(C(=O)N(Cc4ccc(N5C(=O)COc6ccccc65)cc4)c4ccccc43)[C@H]2C)cc1` . Value?
Reply: -0.539 (inactive)

Task item: Endpoint output: composite Z-score of `Cc1ccc(S[C@]2(C(=O)NC(C)C)CC(=O)N(Cc3ccccc3Cl)[C@@H]2c2ccc(CO)cc2I)cc1` . Value?
Reply: 0.219 (inactive)

Task item: Endpoint output: composite Z-score of `CCCCC=C[C@@H](NC(=O)Oc1cccc(C(F)(F)F)c1)c1ccccc1` . Value?
Reply: 0.505 (inactive)

Task item: Endpoint output: composite Z-score of `NCCCCCNC(=O)[C@@H]1C[C@@H]2C(=O)NCC(=O)N2[C@@H]1c1ccc(O)cc1` . Value?
Reply: 0.126 (inactive)

Task item: Endpoint output: composite Z-score of CCOC(=O)C1=CCC(c2ccc(C)cc2)N(S(=O)(=O)c2ccc(C)cc2)C1 (centres undefined) . Value?
Reply: 0.798 (inactive)

Task item: Endpoint output: composite Z-score of `C[C@@H]1ON(c2cccc(C(=O)OC(C)(C)C)c2)[C@H](c2ccc(Br)cc2)[C@H]1C(=O)N1C(=O)OC[C@H]1Cc1ccccc1` . Value?
Reply: 0.0724 (inactive)

Task item: Endpoint output: composite Z-score of `C[C@@]1([C@@H](NC(=O)c2ccccc2)c2ccc(-c3ccccc3)cc2)C[C@H]1C1CCCCC1` . Value?
Reply: 0.309 (inactive)

Task item: Endpoint output: composite Z-score of `COC(=O)c1c(CC[C@@H](CO)NC(=O)N[C@H](Cn2cc(Cc3ccccc3)nn2)C(C)C)oc(C(C)=O)c1C(=O)OC` . Value?
Reply: 0.255 (inactive)

Task item: Endpoint output: composite Z-score of `COc1ccc(CCN2C(=O)[C@@]3(c4ccc([N+](=O)[O-])cc4)CC(=O)N(C4CCCCC4)[C@@H]3c3ccc(CO)cc32)cc1` . Value?
Reply: 0.469 (inactive)

Task item: Endpoint output: composite Z-score of `COc1ccc(CCN2C(=O)[C@@]3(Cc4ccccc42)c2ccccc2C(=O)N(Cc2ccccc2C(F)(F)F)[C@H]3c2ccc(CO)cc2)cc1` . Value?
Reply: 0.319 (inactive)

Task item: Endpoint output: composite Z-score of CCCCCC1=C2CNC(CCC)(C(=O)OC)C=C2C(C)C1=O (centres undefined) . Value?
Reply: 0.956 (inactive)

Task item: Endpoint output: composite Z-score of `COCCOC(=O)N1C(=O)[C@@]2(c3cc(C#CCNC(N)=O)ccc31)[C@H](C(=O)NC[C@H](O)c1ccccc1)[C@H]1C(=O)O[C@H](c3ccccc3)[C@H](c3ccccc3)N1[C@@H]2c1ccccc1OCCO` . Value?
Reply: 0.529 (inactive)

Task item: Endpoint output: composite Z-score of `CN(C)CCCNC(=O)[C@@]1(c2ccc([N+](=O)[O-])cc2)CC(=O)N(C2CCCCC2)[C@@H]1c1ccc(CO)cc1I` . Value?
Reply: -0.75 (inactive)

Task item: Endpoint output: composite Z-score of CC(C)C[C@H]1NC(=O)[C@@]23C(=O)N[C@@H](Cc4ccccc4)C2[C@H](C)[C@@]2(C)O[C@H]2C3/C=C/C/C=C\CNC(=O)[C@H](Cc2ccccc2)NC1=O (some centres undefined) . Value?
Reply: -0.311 (inactive)

Task item: Endpoint output: composite Z-score of `C=CCOC(=O)[C@@H]1[C@H]2C(=O)O[C@H](c3ccccc3)[C@H](c3ccccc3)N2[C@H](c2ccc(OCCOC(=O)[C@@H]3C[C@@H]4C(=O)N[C@@H](CCCC[N+](C)(C)C)C(=O)N4[C@@H]3c3cccc(OCCO)c3)cc2)[C@@]12C(=O)Nc1ccc(I)cc12` . Value?
Reply: 0.516 (inactive)

Task item: Endpoint output: composite Z-score of `CCCC#C[Si](O[C@H](CC)c1cn([C@H](CO)Cc2ccccc2)nn1)(C(C)C)C(C)C` . Value?
Reply: -0.483 (inactive)

Task item: Endpoint output: composite Z-score of `O=C(c1ccccc1)N1Cc2ccccc2[C@@H]2OC(c3ccc(OCCCO)cc3)=N[C@]2(Cc2ccccc2)C1=O` . Value?
Reply: 0.07 (inactive)

Task item: Endpoint output: composite Z-score of `[N-]=[N+]=NCc1ccccc1C[C@]1(C(=O)O)N=C(c2ccc(OCCCO)cc2)O[C@H]1c1ccccc1N=[N+]=[N-]` . Value?
Reply: -0.17 (inactive)

Task item: Endpoint output: composite Z-score of `Cc1ccc(S[C@]2(C(=O)NCC(F)(F)F)CC(=O)N(C(C)C)[C@@H]2c2ccc(CO)cc2I)cc1` . Value?
Reply: 0.314 (inactive)

Task item: Endpoint output: composite Z-score of O=C1NC(=O)C2C1C=CC(C(O)C(c1ccccc1)c1ccccc1)N2Nc1ccc(Cl)cc1Cl (centres undefined) . Value?
Reply: -0.713 (inactive)

Task item: Endpoint output: composite Z-score of CCN(CC)c1ccc(N2CC=CC34O[C@@H]5/C=C\CCCOC(=O)C5[C@H]3C(=O)N(CCO)[C@@H]4C2=O)cc1 (some centres undefined) . Value?
Reply: 0.858 (inactive)

Task item: Endpoint output: composite Z-score of `CCCC[C@@H]1C[C@H]1[C@@H](NC(=O)c1ccco1)c1ccc(Cl)cc1` . Value?
Reply: -0.0717 (inactive)
